List of viability, T/C values.
- System: LG0567-F671-PDC complex spheroids viability
- assay.explanation: Anticancer human tumor LG0567-F671-PDC patient-derived lung adenocarcinoma cell line growth inhibition [RAS]
- test.parameters: second compound 0.003 µM; first compound 3.16 µM; stronger effect = lower value
readout.name: viability, T/C (%)

compound | assay.target | readout.name | unit.of.measure | quantitative.readout
CC(C)NCC(C(=O)N1CCN(c2ncnc3c2C(C)CC3O)CC1)c1ccc(Cl)cc1 (centres undefined) + CCn1c(-c2cccnc2C(C)OC)c2c3cc(ccc31)N1CCOC(CC(NC(=O)C(C(C)C)N(C)C(=O)C3(F)CCN(C(=O)C#CC(C)(C)N(C)C)CC3)C(=O)N3CCCC(N3)C(=O)OCC(C)(C)C2)C1 | LG0567-F671-PDC complex spheroids viability | viability, T/C | % | 8.33
CC(C)NCC(C(=O)N1CCN(c2ncnc3c2C(C)CC3O)CC1)c1ccc(Cl)cc1 (centres undefined) + CCn1c(-c2cc(N3CCN(C)CC3)cnc2C(C)OC)c2c3cc(ccc31)-c1csc(n1)CC(NC(=O)C1CC1C)C(=O)N1CCCC(N1)C(=O)OCC(C)(C)C2 | LG0567-F671-PDC complex spheroids viability | viability, T/C | % | 6.61
NC1c2ccccc2OC12CCN(c1cnc3c(N4CCCc5ncccc54)n[nH]c3n1)CC2 (centres undefined) + CCn1c(-c2cccnc2C(C)OC)c2c3cc(ccc31)N1CCOC(CC(NC(=O)C(C(C)C)N(C)C(=O)C3(F)CCN(C(=O)C#CC(C)(C)N(C)C)CC3)C(=O)N3CCCC(N3)C(=O)OCC(C)(C)C2)C1 | LG0567-F671-PDC complex spheroids viability | viability, T/C | % | 2.89
CCC(CC)c1cc(NC2CCC(N)C2)n2nccc2n1 (centres undefined) + CCn1c(-c2cc(N3CCN(C)CC3)cnc2C(C)OC)c2c3cc(ccc31)-c1csc(n1)CC(NC(=O)C1CC1C)C(=O)N1CCCC(N1)C(=O)OCC(C)(C)C2 | LG0567-F671-PDC complex spheroids viability | viability, T/C | % | 0.21

---

- Tested on: LG0567-F671-PDC complex spheroids viability
- assay.explanation: Anticancer human tumor LG0567-F671-PDC cell line growth inhibition [RAS]; active = viability on the fitted dose curve at most 10% of control; inactive = the rest;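 also: spheroids exposed to compound for seven days before readout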
- test.parameters: second compound 0.000949 µM; first compound 3.16 µM
Classes used: active, inactive

compound | classification
Cc1nc(N2CCC3(CC2)COC(C)C3N)c(CO)nc1Sc1ccnc(N)c1Cl (configuration not stated) + CCn1c(-c2cccnc2C(C)OC)c2c3cc(ccc31)N1CCOC(CC(NC(=O)C(C(C)C)N(C)C(=O)C3(F)CCN(C(=O)C#CC(C)(C)N(C)C)CC3)C(=O)N3CCCC(N3)C(=O)OCC(C)(C)C2)C1 | active
CC(C)NCC(C(=O)N1CCN(c2ncnc3c2C(C)CC3O)CC1)c1ccc(Cl)cc1 (configuration not stated) + CCn1c(-c2cccnc2C(C)OC)c2c3cc(ccc31)N1CCOC(CC(NC(=O)C(C(C)C)N(C)C(=O)C3(F)CCN(C(=O)C#CC(C)(C)N(C)C)CC3)C(=O)N3CCCC(N3)C(=O)OCC(C)(C)C2)C1 | inactive

---

- System: LG0567-F671-PDC complex spheroids viability
- assay.explanation: Anticancer human tumor LG0567-F671-PDC cell line growth inhibition [RAS];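 also: spheroids exposed to compound for seven days before readout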
- test.parameters: second compound 0.01 µM; first compound 0.316 µM; stronger effect = lower value
Exam item: assign 1 to entries whose viability, T/C is below 8% and 0 to entries at or above 8%. Note that a value of exactly 8% receives 0.

molecule | classification
Cc1nc(N2CCC3(CC2)COC(C)C3N)c(CO)nc1Sc1ccnc(N)c1Cl (centres undefined) + C=CC(=O)N1CCN(c2nc(OCC3CCCN3C)nc3c(F)c(-c4nc(N)cc(C)c4C(F)(F)F)c(Cl)cc23)C(C)C1 | 1
CCN1CCN(Cc2ccc(Nc3ncc(F)c(-c4cc(F)c5nc(C)n(C(C)C)c5c4)n3)nc2)CC1 + C=CC(=O)N1CCN(c2nc(OCC3CCCN3C)nc3c(F)c(-c4nc(N)cc(C)c4C(F)(F)F)c(Cl)cc23)C(C)C1 | 0
CC(C)NCC(C(=O)N1CCN(c2ncnc3c2C(C)CC3O)CC1)c1ccc(Cl)cc1 (centres undefined) + C=CC(=O)N1CCN(c2nc(OCC3CCCN3C)nc3c(F)c(-c4nc(N)cc(C)c4C(F)(F)F)c(Cl)cc23)C(C)C1 | 0
CC(=O)OC12COC1CC(O)C1(C)C(=O)C(O)C3=C(C)C(OC(=O)C(O)C(NC(=O)OC(C)(C)C)c4ccccc4)CC(O)(C(OC(=O)c4ccccc4)C21)C3(C)C (centres undefined) + C=CC(=O)N1CCN(c2nc(OCC3CCCN3C)nc3c(F)c(-c4nc(N)cc(C)c4C(F)(F)F)c(Cl)cc23)C(C)C1 | 0
O=C(c1ccc(F)c(F)c1Nc1ccc(I)cc1F)N1CC(O)([C@@H]2CCCCN2)C1 + C=CC(=O)N1CCN(c2nc(OCC3CCCN3C)nc3c(F)c(-c4nc(N)cc(C)c4C(F)(F)F)c(Cl)cc23)C(C)C1 | 1
NC1c2ccccc2OC12CCN(c1cnc3c(N4CCCc5ncccc54)n[nH]c3n1)CC2 (centres undefined) + C=CC(=O)N1CCN(c2nc(OCC3CCCN3C)nc3c(F)c(-c4nc(N)cc(C)c4C(F)(F)F)c(Cl)cc23)C(C)C1 | 1
C=CC(=O)Nc1cc(Nc2nccc(-c3cn(C)c4ccccc34)n2)c(OC)cc1N(C)CCN(C)C + C=CC(=O)N1CCN(c2nc(OCC3CCCN3C)nc3c(F)c(-c4nc(N)cc(C)c4C(F)(F)F)c(Cl)cc23)C(C)C1 | 1
CC(Nc1ccc2c(c1)OCCn1cc(N3C(=O)OCC3C(F)F)nc1-2)C(N)=O (centres undefined) + C=CC(=O)N1CCN(c2nc(OCC3CCCN3C)nc3c(F)c(-c4nc(N)cc(C)c4C(F)(F)F)c(Cl)cc23)C(C)C1 | 0
C[C@@H](NC(=O)c1ncnc(N)c1Cl)c1ncc(C(=O)Nc2cc(C(F)(F)F)c(Cl)cn2)s1 + C=CC(=O)N1CCN(c2nc(OCC3CCCN3C)nc3c(F)c(-c4nc(N)cc(C)c4C(F)(F)F)c(Cl)cc23)C(C)C1 | 0

---

List of pIC50 values.
- Tested on: LG0567-F671-PDC complex spheroids viability
- assay.explanation: Anticancer human tumor LG0567-F671-PDC cell line growth inhibition [RAS];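 also: spheroids exposed to compound for seven days before readout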;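 as to pIC50: luminescence signal used as a proxy for viable cells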
- test.parameters: curve of first compound; second compound 0.1 µM
pIC50: −log10 of the molar value.

compound | assay.target | pIC50
C=CC(=O)Nc1cc(Nc2nccc(-c3cn(C)c4ccccc34)n2)c(OC)cc1N(C)CCN(C)C + C#Cc1c(F)ccc2cc(O)cc(-c3ncc4c(N5CC6CCC(C5)N6)nc(OCC56CCCN5CC(F)C6)nc4c3F)c12 | LG0567-F671-PDC complex spheroids viability | 7.07
C[C@@H](NC(=O)c1ncnc(N)c1Cl)c1ncc(C(=O)Nc2cc(C(F)(F)F)c(Cl)cn2)s1 + C#Cc1c(F)ccc2cc(O)cc(-c3ncc4c(N5CC6CCC(C5)N6)nc(OCC56CCCN5CC(F)C6)nc4c3F)c12 | LG0567-F671-PDC complex spheroids viability | < 5.00
NC1c2ccccc2OC12CCN(c1cnc3c(N4CCCc5ncccc54)n[nH]c3n1)CC2 (stereo unspecified) + C=CC(=O)N1CCN(c2nc(OCC3CCCN3C)nc3c(F)c(-c4nc(N)cc(C)c4C(F)(F)F)c(Cl)cc23)C(C)C1 | LG0567-F671-PDC complex spheroids viability | > 7.50
CC(C)NCC(C(=O)N1CCN(c2ncnc3c2C(C)CC3O)CC1)c1ccc(Cl)cc1 (stereo unspecified) + C=CC(=O)N1CCN(c2nc(OCC3CCCN3C)nc3c(F)c(-c4nc(N)cc(C)c4C(F)(F)F)c(Cl)cc23)C(C)C1 | LG0567-F671-PDC complex spheroids viability | > 7.50
CC(=O)OC12COC1CC(O)C1(C)C(=O)C(O)C3=C(C)C(OC(=O)C(O)C(NC(=O)OC(C)(C)C)c4ccccc4)CC(O)(C(OC(=O)c4ccccc4)C21)C3(C)C (stereo unspecified) + C=CC(=O)N1CCN(c2nc(OCC3CCCN3C)nc3c(F)c(-c4nc(N)cc(C)c4C(F)(F)F)c(Cl)cc23)C(C)C1 | LG0567-F671-PDC complex spheroids viability | > 7.50
CC1(C)CCC(Nc2ncc(C(F)(F)F)c(-c3c[nH]c4c(P(C)(C)=O)c(C#N)ccc34)n2)CN1 (stereo unspecified) + C=CC(=O)N1CCN(c2nc(OCC3CCCN3C)nc3c(F)c(-c4nc(N)cc(C)c4C(F)(F)F)c(Cl)cc23)C(C)C1 | LG0567-F671-PDC complex spheroids viability | > 9.02
C=CC(=O)N1CCN(c2nc(OCC3CCCN3C)nc3c(F)c(-c4nc(N)cc(C)c4C(F)(F)F)c(Cl)cc23)C(C)C1 (stereo unspecified) + C#Cc1c(F)ccc2cc(O)cc(-c3ncc4c(N5CC6CCC(C5)N6)nc(OCC56CCCN5CC(F)C6)nc4c3F)c12 | LG0567-F671-PDC complex spheroids viability | > 8.50
CCN1CCN(Cc2ccc(Nc3ncc(F)c(-c4cc(F)c5nc(C)n(C(C)C)c5c4)n3)nc2)CC1 + C=CC(=O)N1CCN(c2nc(OCC3CCCN3C)nc3c(F)c(-c4nc(N)cc(C)c4C(F)(F)F)c(Cl)cc23)C(C)C1 | LG0567-F671-PDC complex spheroids viability | > 8.50
NC1c2ccccc2OC12CCN(c1cnc3c(N4CCCc5ncccc54)n[nH]c3n1)CC2 (stereo unspecified) + C#Cc1c(F)ccc2cc(O)cc(-c3ncc4c(N5CC6CCC(C5)N6)nc(OCC56CCCN5CC(F)C6)nc4c3F)c12 | LG0567-F671-PDC complex spheroids viability | > 7.50
CC(Nc1ccc2c(c1)OCCn1cc(N3C(=O)OCC3C(F)F)nc1-2)C(N)=O (stereo unspecified) + C#Cc1c(F)ccc2cc(O)cc(-c3ncc4c(N5CC6CCC(C5)N6)nc(OCC56CCCN5CC(F)C6)nc4c3F)c12 | LG0567-F671-PDC complex spheroids viability | 6.68
CC(C)n1nc(-c2ccc3oc(N)nc3c2)c2c(N)ncnc21 + C#Cc1c(F)ccc2cc(O)cc(-c3ncc4c(N5CC6CCC(C5)N6)nc(OCC56CCCN5CC(F)C6)nc4c3F)c12 | LG0567-F671-PDC complex spheroids viability | 7.75
